The reported measurements were obtained from the supplement of paper PMC9103864.

tested on: BMSC (primary human bone marrow mesenchymal stromal cells); assay: absolute EC50 for viability; higher = less sensitive
quantity measured: absolute EC50 for viability

Item: O=C(NOC[C@H](O)CO)c1ccc(F)c(F)c1Nc1ccc(I)cc1F | System: BMSC (primary human bone marrow mesenchymal stromal cells) | absolute EC50 for viability: > 1000 nM

Item: CCCS(=O)(=O)Nc1ccc(F)c(C(=O)c2c[nH]c3ncc(-c4ccc(Cl)cc4)cc23)c1F | System: BMSC (primary human bone marrow mesenchymal stromal cells) | absolute EC50 for viability: > 10000 nM

Item: CCN1C(=O)CNc2ncc(-c3ccc(-c4nc[nH]n4)nc3C)nc21 | System: BMSC (primary human bone marrow mesenchymal stromal cells) | absolute EC50 for viability: 2860 nM

Item: O=C(c1ccc(F)c(F)c1Nc1ccc(I)cc1F)N1CC(O)([C@@H]2CCCCN2)C1 | System: BMSC (primary human bone marrow mesenchymal stromal cells) | absolute EC50 for viability: > 1000 nM

Item: CN(CC(=O)N(Cc1ccc(C2CCCCC2)cc1)c1ccc(C(=O)O)cc1)S(=O)(=O)c1c(F)c(F)c(F)c(F)c1F | System: BMSC (primary human bone marrow mesenchymal stromal cells) | absolute EC50 for viability: > 25000 nM

Item: O=C(CCCCCCC(=O)Nc1ccc([C@H]2O[C@@H](CSc3nc(-c4ccccc4)c(-c4ccccc4)o3)C[C@@H](c3ccc(CO)cc3)O2)cc1)NO | System: BMSC (primary human bone marrow mesenchymal stromal cells) | absolute EC50 for viability: > 10000 nM

Item: CCc1nc(C(N)=O)c(Nc2ccc(N3CCC(N4CCN(C)CC4)CC3)c(OC)c2)nc1NC1CCOCC1 | System: BMSC (primary human bone marrow mesenchymal stromal cells) | absolute EC50 for viability: > 1000 nM

====

test system: BMSC (primary human bone marrow mesenchymal stromal cells); assay: absolute EC50 for viability; higher = less sensitive
Record form. Attribute: absolute EC50 for viability. Fill in for each entry.

The reported value for CC[C@H](CC#N)OC(=O)N[C@@H](C)c1cccc(NC(=O)Nc2ccc(-c3cnco3)c(OC)c2)c1 in terms of absolute EC50 for viability is > 10 µM

The reported value for Cc1cc([C@@H](C)Nc2ccccc2C(=O)O)c2nc(N3CCOCC3)cc(=O)n2c1 in terms of absolute EC50 for viability is > 2.5 µM

The reported value for CC(C)NC[C@@H](C(=O)N1CCN(c2ncnc3c2[C@H](C)C[C@H]3O)CC1)c1ccc(Cl)cc1 in terms of absolute EC50 for viability is > 10 µM

The reported value for COc1cc(NS(C)(=O)=O)ccc1Nc1c2ccccc2nc2ccccc12 in terms of absolute EC50 for viability is > 10 µM

The reported value for Cc1c(Cn2c(C)nc3c(C(=O)O)cc(N4CCOCC4)cc32)cccc1C(F)(F)F in terms of absolute EC50 for viability is > 10 µM

The reported value for Nc1cc(F)ccc1NC(=O)/C=C/c1cnn(C/C=C/c2ccccc2)c1 in terms of absolute EC50 for viability is > 10 µM

The reported value for Cc1nc(NC(=O)N2CCC[C@H]2C(N)=O)sc1-c1ccnc(C(C)(C)C(F)(F)F)c1 in terms of absolute EC50 for viability is > 2.5 µM

The reported value for Cn1cnc2c(F)c(Nc3ccc(Br)cc3F)c(C(=O)NOCCO)cc21 in terms of absolute EC50 for viability is > 1 µM

The reported value for CN1CCN(C2CCN(C(=O)Nc3cc(Oc4ccc(NC(=O)C5(C(=O)Nc6ccc(F)cc6)CC5)c(F)c4)ccn3)CC2)CC1 in terms of absolute EC50 for viability is > 2.5 µM

The reported value for CC(=O)[C@]1(O)Cc2c(O)c3c(c(O)c2[C@@H](O[C@H]2C[C@H](N)[C@H](O)[C@H](C)O2)C1)C(=O)c1ccccc1C3=O in terms of absolute EC50 for viability is 0.233 µM

The reported value for C/C(=C\c1csc(C)n1)[C@@H]1C[C@@H]2O[C@]2(C)CCC[C@H](C)[C@H](O)[C@@H](C)C(=O)C(C)(C)[C@@H](O)CC(=O)N1 [Ixabepilone] in terms of absolute EC50 for viability is > 1 µM

The reported value for CCNC(=O)CCC/C=C\C[C@@H]1[C@@H](/C=C/[C@@H](O)CCc2ccccc2)[C@H](O)C[C@@H]1O in terms of absolute EC50 for viability is > 5.5 µM

The reported value for CN(C)C/C=C/C(=O)Nc1cc2c(Nc3ccc(F)c(Cl)c3)ncnc2cc1O[C@H]1CCOC1 in terms of absolute EC50 for viability is > 1 µM

The reported value for N.N.[Cl][Pt][Cl] [Cisplatin] in terms of absolute EC50 for viability is 48.5 µM

The reported value for CNC(=O)CN1CCC(Oc2cc3c(Nc4cccc(Cl)c4F)ncnc3cc2OC)CC1 in terms of absolute EC50 for viability is > 1 µM

The reported value for CCC1(c2ccc(N)cc2)CCC(=O)NC1=O (stereo not drawn) [Aminoglutethimide] in terms of absolute EC50 for viability is > 10 µM

The reported value for Cc1nc(Nc2n[nH]c3c2CN(C(=O)N[C@H](CN(C)C)c2ccccc2)C3(C)C)c2sccc2n1 in terms of absolute EC50 for viability is 2.86 µM

The reported value for COc1cccc2c1C(=O)c1c(O)c3c(c(O)c1C2=O)C[C@@](O)(C(=O)CO)C[C@@H]3O[C@H]1C[C@H](N)[C@@H](O)[C@H](C)O1 [Epirubicin] in terms of absolute EC50 for viability is 0.249 µM

The reported value for CN(C)CCOc1ccc(/C(=C(/CCCl)c2ccccc2)c2ccccc2)cc1 in terms of absolute EC50 for viability is > 10 µM

The reported value for NC(=S)N/N=C/c1ncccc1N in terms of absolute EC50 for viability is > 10 µM

The reported value for FC(F)(F)c1ccc(/C=C/c2nc(COc3ccc(CCCCn4ccnn4)cc3)co2)cc1 in terms of absolute EC50 for viability is > 1 µM

The reported value for Cc1cccc(-c2nn3c(c2-c2ccnc4ccc(C(N)=O)cc24)CCC3)n1 in terms of absolute EC50 for viability is > 1 µM

The reported value for Cc1c(F)cc(C(=O)NC2CC2)cc1-c1ccc(C(=O)NCC(C)(C)C)cn1 in terms of absolute EC50 for viability is > 10 µM

The reported value for CC(C)Oc1ccc(-c2nn([C@@H](C)c3oc4ccc(F)cc4c(=O)c3-c3cccc(F)c3)c3ncnc(N)c23)cc1F in terms of absolute EC50 for viability is > 2.5 µM

The reported value for COc1ccc(-c2ccc3c(N4CCOC[C@@H]4C)nc(N4CCOC[C@@H]4C)nc3n2)cc1CO in terms of absolute EC50 for viability is 0.207 µM

The reported value for Cc1c(-c2ccc(N3CCc4cccc(C(=O)Nc5nc6ccccc6s5)c4C3)nc2C(=O)O)cnn1CC12CC3CC(CC(C3)C1)C2 in terms of absolute EC50 for viability is > 1 µM

The reported value for O=C(c1cc(Cc2n[nH]c(=O)c3ccccc23)ccc1F)N1CCN(C(=O)C2CC2)CC1 in terms of absolute EC50 for viability is > 10 µM

The reported value for CN(c1ncccc1CNc1nc(Nc2ccc3c(c2)CC(=O)N3)ncc1C(F)(F)F)S(C)(=O)=O in terms of absolute EC50 for viability is > 10 µM

The reported value for COc1ccccc1S(=O)(=O)Nc1ccc2c(c1)CN(C)C(=O)N2 in terms of absolute EC50 for viability is > 30 µM

The reported value for COc1ccc(CCc2nc3cc(-c4c(C)noc4C)ccc3n2C[C@H](C)N2CCOCC2)cc1Cl in terms of absolute EC50 for viability is > 25 µM

The reported value for c1cn2cc(-c3ccc4cn[nH]c4c3)nc(Nc3ccc(N4CCOCC4)cc3)c2n1 in terms of absolute EC50 for viability is > 5 µM

The reported value for COc1cc2nccc(Oc3ccc(NC(=O)NC4CC4)c(Cl)c3)c2cc1C(N)=O in terms of absolute EC50 for viability is > 2.5 µM

The reported value for CC1(N)CCN(c2cnc(-c3cccc(Cl)c3Cl)c(N)n2)CC1 in terms of absolute EC50 for viability is > 10 µM

====

tested on: BMSC (primary human bone marrow mesenchymal stromal cells); assay: absolute EC50 for viability; higher = less sensitive
Record form. Attribute: absolute EC50 for viability. Fill in for each entry.

The reported value for NC(=O)Nc1cc(-c2cccc(F)c2)sc1C(=O)N[C@H]1CCCNC1 in terms of absolute EC50 for viability is > 1 µM

The reported value for C=CC[C@@H]1/C=C(\C)C[C@H](C)C[C@H](OC)[C@H]2O[C@@](O)(C(=O)C(=O)N3CCCC[C@H]3C(=O)O[C@H](/C(C)=C/[C@@H]3CC[C@@H](O)[C@H](OC)C3)[C@H](C)[C@@H](O)CC1=O)[C@H](C)C[C@@H]2OC in terms of absolute EC50 for viability is > 10 µM

The reported value for CC(C)c1cc(C(=O)N2Cc3ccc(CN4CCN(C)CC4)cc3C2)c(O)cc1O in terms of absolute EC50 for viability is 0.0904 µM

The reported value for CC(C)n1cnc2c(NCCc3ccc(O)cc3)nc(-c3csc4ccccc34)nc21 in terms of absolute EC50 for viability is > 10 µM

The reported value for Cc1ncc(-c2ccnc(Nc3ccc(S(C)(=O)=O)cc3)n2)n1C(C)C in terms of absolute EC50 for viability is > 10 µM

The reported value for CNC(=O)c1ccc(C)c(-n2c(C)cc(OCc3ccc(F)cc3F)c(Br)c2=O)c1 in terms of absolute EC50 for viability is > 1 µM
